Where these numbers come from: PubChem BioAssay (NCI)

- System: CAKI-1 renal
- protocolSummary: NCI-60 one-dose screen, 48 h (100 = growth as untreated, 0 = no growth, -100 = all killed)
- conditionSummary: 10 µM unless noted
Compounds without any hit were thinned out: in the full panel of roughly 83,000, 20% have a hit.
The compounds listed here are annotated with their growth.
quantityName: growth (%)

>>> print(df.to_string())
                                   compound      testedon  readoutnumber
0  N[C@@H](Cc1cn(-c2ccnc3ccccc23)nn1)C(=O)O  CAKI-1 renal           97.3
1  CCOc1ccc([C@H]2C(C(=O)c3ccc(Cl)cc3)C3(N[C@@H]2c2ccccc2)C(=O)Nc2ccc(Br)cc23)cc1 (stereo not given in full)  CAKI-1 renal           31.8
2  Clc1ccc2c(NCCCN3CCOCC3)c3oc4ccccc4c3nc2c1  CAKI-1 renal           30.4
3  COc1ccc(-c2nc3ccc(-c4nnc(SCC(=O)Nc5ccc(C(C)=O)cc5)o4)cc3[nH]2)cc1  CAKI-1 renal            101
4  CSCCC(C(=O)O)N1C(=O)/C(=C/c2ccc(O)c(O)c2)SC1=S (stereo not given)  CAKI-1 renal           95.6

---

- Tested on: SK-MEL-5 melanoma
- protocolSummary: NCI-60 one-dose screen, 48 h (100 = growth as untreated, 0 = no growth, -100 = all killed)
- conditionSummary: 10 µM unless noted
This is part of a sample that, as a whole, favours compounds with a hit. Of some 83,000 tested, about 20% had one in any assay.
Short version: growth at least 50% is condition met, less is condition not met.

>>> print(df.to_string())
                                   compound           testedon        answerlabel
0  CCOc1ccc([C@H]2C(C(=O)c3ccc(Cl)cc3)C3(N[C@@H]2c2ccccc2)C(=O)Nc2ccc(Br)cc23)cc1 (some centres undefined)  SK-MEL-5 melanoma  condition not met
1  O=C(N/N=C/c1ccc([N+](=O)[O-])o1)c1[nH]c2ccc(Br)cc2c1-c1ccccc1  SK-MEL-5 melanoma  condition not met
2  O=C(CCCN1C(=O)/C(=C/c2ccccc2F)SC1=S)N1CCOCC1  SK-MEL-5 melanoma      condition met
3  COc1ccc(N/N=C/c2c(-c3ccc(S(C)(=O)=O)cc3)nc3ccccn23)cc1  SK-MEL-5 melanoma      condition met
4  Nc1ncc(-c2ccc3ncnc(N4CCc5cc(F)c(Cl)cc54)c3c2)cc1CO  SK-MEL-5 melanoma  condition not met
5      C#Cc1nc(C2=C(C)C(=N\O)/C(=N/O)C2)cs1  SK-MEL-5 melanoma      condition met
6  Nc1nc(N)c2c(n1)NC(c1ccc(C(F)(F)F)cc1)CC(c1ccc(Nc3nc(NCCO)nc(Nc4ccc(Cl)cc4)n3)cc1)=N2 (centres undefined)  SK-MEL-5 melanoma  condition not met
7  NC(=O)c1cc(-c2ccc3ncnc(N4CCc5cc(F)c(Cl)cc54)c3c2)cnc1N  SK-MEL-5 melanoma      condition met

---

The compounds listed here are annotated with their growth.
- Test system: CAKI-1 renal
- protocolSummary: NCI-60 one-dose screen, 48 h (100 = growth as untreated, 0 = no growth, -100 = all killed)
- conditionSummary: 10 µM unless noted
This is part of a sample that, as a whole, favours compounds with a hit. Of some 83,000 tested, about 20% had one in any assay.
quantityName: growth (%)

>>> print(df.to_string())
                                    compound  u  readoutnumber
 0       COc1cccc(NC2=CC(=O)C(C)=C(C)C2=O)c1  %             93
 1  C[C@@H]1CN(c2ccc3ncc(C#Cc4cncc(C(=O)Nc5ccc(CN6CCN(C)CC6)c(C(F)(F)F)c5)c4)n3n2)C[C@H](C)O1  %          -94.1
 2  Nc1cc(-c2c[nH]c3ccccc23)nc2cc(-c3c[nH]c4ccccc34)nn12  %           59.4
 3  COc1cccc(-c2nn(-c3ccccc3)cc2-c2ccnc(N3CCN(C(=O)c4ccccc4)CC3)c2)c1  %           86.2
 4  COc1ccc(-c2nc3ccc(-c4nnc(SCC(=O)Nc5ccc(C(=O)/C=C/c6ccc(Cl)cc6)cc5)o4)cc3[nH]2)cc1OC  %            100
 5  CNC(=O)c1cc(-c2ccc(NC(=O)Nc3ccc(N4CCOCC4)c(C(F)(F)F)c3)cc2)nc2cccnc12  %             64
 6   COc1ccc(/C=C2\SC(=Nc3cc(C)on3)NC2=O)cc1  %           96.6
 7  COc1ccc(-c2cc(C(=O)N=Nc3c(O)[nH]c4ccccc34)c3ccccc3n2)cc1OC  %           94.9
 8  C/C(=N/NC(N)=S)c1ccc(Nc2nc(SCC(C)C)nc(-c3ccc(F)cc3)c2C#N)cc1  %          -9.45
 9  NS(=O)(=O)c1cccc(Nc2nc(SCC(=O)c3ccc([N+](=O)[O-])cc3)nc3ccccc23)c1  %           27.6
10            O=C(CN1CCOCC1)NNc1ncnc2ccccc12  %           93.9
11  CC(=O)Nc1cc(F)cc(-c2ccc3[nH]cc(-c4ccccc4)c3n2)c1  %          -37.1
12             O=[N+]([O-])c1ccc(O)c2ncccc12  %           30.5
13  O=C(N/N=C/c1cccs1)c1[nH]c2ccc(Br)cc2c1-c1ccccc1  %           25.7
14  O=C1Nc2cc(Cl)ccc2/C1=C\c1ccc(OCc2ccc([N+](=O)[O-])cc2)cc1  %           64.6
15  COc1ccc(CNS(=O)(=O)/N=C2\NC(=O)NC2=C(Cl)Cl)cc1  %           45.9
16  COc1ccc(/C=N/NC(=O)c2[nH]c3ccc(Br)cc3c2-c2ccccc2)s1  %           24.5
17  CN(C)CCCOc1c2ccc(Cl)cc2nc2c1oc1ccc(Cl)cc12  %          -12.1
18  COc1cc2nc(-c3ccc(C)cc3)cc(OCCCNCC3CCCO3)c2cc1OC (stereo not given)  %           24.6
19  CC(=O)Oc1ccccc1C(=O)Nc1ccc(C(=O)/C=C/c2cccs2)cc1  %           96.2
